Assay: Stability in rat plasma
Type: in vitro ADME
Conditions: both sexes, SD rat plasma, EDTA, 37° C., read-out: t½: Rat Plasma EDTA (converted)
Bridge positions count the residues as written; N and C are the ends. Square brackets hold non-standard residues; d marks the D form. Peptide text beside a SMILES is read from it. Trp(7-Me) = Cc1cccc2c(C[C@H](N)C(=O)O)c[nH]c12; 2Nal = N[C@@H](Cc1ccc2ccccc2c1)C(=O)O; AEF = NCCOc1ccc(C[C@H](N)C(=O)O)cc1; Cit = NC(=O)NCCC[C@H](N)C(=O)O; Pen = CC(C)(S)[C@H](N)C(=O)O; αMeK = C[C@](N)(CCCCN)C(=O)O; Aib = CC(C)(N)C(=O)O
recorded metric: half-life at 20 μM

CC(=O)NCCCC[C@H](NC(=O)[C@](C)(CCCCN)NC(=O)[C@H](Cc1ccc2ccccc2c1)NC(=O)[C@H](Cc1ccc(OCCN)cc1)NC(=O)[C@H]1NC(=O)[C@H](CCCCNC(=O)[C@H](C)N)NC(=O)[C@H](Cc2c[nH]c3c(C)cccc23)NC(=O)[C@H]([C@@H](C)O)NC(=O)[C@H](CC(N)=O)NC(=O)[C@@H](NC(C)=O)C(C)(C)SSC1(C)C)C(=O)N[C@@H](CC(N)=O)C(=O)N[C@H](CC(C)C)C(N)=O ... > 24 h
CC(=O)NCCCC[C@H](NC(=O)[C@](C)(CCCCN)NC(=O)[C@H](Cc1ccc2ccccc2c1)NC(=O)[C@H](Cc1ccc(OCCN)cc1)NC(=O)[C@H]1NC(=O)[C@H](CCCNC(N)=O)NC(=O)[C@H](Cc2c[nH]c3c(C)cccc23)NC(=O)[C@H]([C@@H](C)O)NC(=O)[C@H](CC(N)=O)NC(=O)[C@@H](NC(C)=O)C(C)(C)SSC1(C)C)C(=O)N[C@@H](CC(N)=O)C(=O)NC(C)(C)C(=O)N[C@H](CCCCN)C(N)=O [compound 344] (Ac-[Pen]NT[Trp(7-Me)][Cit][Pen][AEF][2Nal][αMeK]K(Ac)N[Aib][dK]-NH2; disulfide 1-6) ... > 24 h
CC(=O)NCCCC[C@H](NC(=O)[C@](C)(CC(C)C)NC(=O)[C@H](Cc1ccc2ccccc2c1)NC(=O)[C@H](Cc1ccc(OCCN)cc1)NC(=O)[C@H]1NC(=O)[C@H](CCC(N)=O)NC(=O)[C@H](Cc2c[nH]c3c(C)cccc23)NC(=O)[C@H]([C@@H](C)O)NC(=O)[C@H](CC(N)=O)NC(=O)[C@@H](NC(C)=O)C(C)(C)SSC1(C)C)C(=O)N[C@@H](C(=O)NCCC(N)=O)[C@H](C)O ... 1 h
CC(=O)NCCCC[C@@H]1NC(=O)[C@H](Cc2c[nH]c3c(C)cccc23)NC(=O)[C@H]([C@@H](C)O)NC(=O)[C@@H]2CCCN2C(=O)[C@@H](NC(C)=O)C(C)(C)SSC(C)(C)[C@@H](C(=O)N[C@@H](Cc2ccc(OCCN)cc2)C(=O)N[C@@H](Cc2ccc3ccccc3c2)C(=O)N[C@@](C)(CCCCN)C(=O)N[C@@H](CCCCNC(C)=O)C(=O)N[C@@H](CC(N)=O)C(=O)N[C@H](CC(C)C)C(N)=O)NC1=O [compound 333] (Ac-[Pen]PT[Trp(7-Me)]K(Ac)[Pen][AEF][2Nal][αMeK]K(Ac)N[dL]-NH2; disulfide 1-6) ... > 24 h

Kindly consider the entry below.
Input line: Using the record for COc1cccc2c(C[C@@H]3NC(=O)[C@H]([C@@H](C)O)NC(=O)[C@H](CC(N)=O)NC(=O)[C@@H](NC(C)=O)C(C)(C)SSC(C)(C)[C@@H](C(=O)N[C@@H](Cc4ccc(OCCN)cc4)C(=O)N[C@@H](Cc4ccc5ccccc5c4)C(=O)N[C@@](C)(CCCCN)C(=O)N[C@@H](CCCCNC(C)=O)C(=O)N[C@@H](CC(N)=O)C(=O)N[C@H](CCCCN)C(N)=O)NC(=O)[C@H](CCC(N)=O)NC3=O)c[nH]c12 , report its half-life at 20 μM.
Output line: > 24 h
